Read-out record for 5-HT1B receptors (Rattus norvegicus): IC50
Numbers only, in µM.

Solved entries (count: 2):
>>> reported("Cc1csc2c1-n1cccc1/C2=N/OCC(C)N(C)C (centres unmarked)")
11
>>> reported("Cc1csc2c1-n1cccc1/C2=N/OCCN(C)C")
2.7

For every listed record, write down its IC50.
1. Cc1csc2c1-n1cccc1C2=NOCCN1CCCCC1
2. CN(C)CCON=C1c2sccc2-n2cccc21

Result ::
[14, 0.61]

###

- tgt: 5-HT1D receptors
- assay_text: Displacement of 5-OH-tryptamine at 5-HT1D receptors
- applied_conditions: rat cortex, striatum and globus pallidus homogenates
Provide the reported pIC50 of each item.
Numbers only, as −log10 of the molar value.

>>> reported("Cc1ccc2c(c1)C(=NOCC(C)N(C)C)c1cccn1-2 (stereo not shown)")
6.09
>>> reported("Cc1csc2c1-n1cccc1/C2=N/OCCNCc1ccccc1")
4.96
>>> reported("Cc1csc2c1-n1cccc1C2=NOC(CCN(C)C)c1ccccc1 (stereo not shown)")
5.17
>>> reported("Cc1csc2c1-n1cccc1C2=NOCCN1CCCCC1")
5.12
>>> reported("Cc1csc2c1-n1cccc1/C2=N/OCC(C)CN(C)C (stereo not shown)")
4.96
>>> reported("CCN(CC)CCON=C1c2scc(C)c2-n2cccc21")
5.40

Query :: I am curious: what pIC50 value has been reported for "Cc1csc2c1-n1cccc1/C2=N/OCCN(C)C" ?
Result :: 6.32

###

- tgt: 5-HT1D receptors
- assay_text: Displacement of 5-OH-tryptamine at 5-HT1D receptors
- applied_conditions: rat cortex, striatum and globus pallidus homogenates
Provide the reported pIC50 of each item.
Give bare numbers, as −log10 of the molar value.

>>> reported("Cc1csc2c1-n1cccc1/C2=N/OCC(C)N(C)C (stereo not shown)")
5.19

For every listed record, write down its pIC50.
1. Cc1csc2c1-n1cccc1/C2=N/OCCN
2. CN(C)CCON=C1c2ccccc2-n2cccc21
3. CN(C)CCON=C1c2sccc2-n2cccc21
4. CC(CON=C1c2ccccc2-n2cccc21)N(C)C (stereo not shown)
5. Cc1ccc2c(c1)C(=NOCCC1CCCN1C)c1cccn1-2 (stereo not shown)
6. Cc1csc2c1-n1cccc1/C2=N/OCCCN(C)C
7. CN(C)CCON=C1c2cc(Cl)ccc2-n2cccc21
8. Cc1csc2c1-n1cccc1C2=NOCCN1CCCC1

Result ::
1. 5.57
2. 6.16
3. 6.39
4. 5.85
5. 5.26
6. 5.15
7. 5.51
8. 5.49

Query :: I am curious: what pIC50 value has been reported for CN1CCCC1CON=C1c2sccc2-n2cccc21 (racemic) ?
Result :: 4.96

###

- tgt: serotonin reuptake site (Rattus norvegicus)
- Construct: rat brain from which the cerebellum has been removed
- Sequence (P31652 whole entry): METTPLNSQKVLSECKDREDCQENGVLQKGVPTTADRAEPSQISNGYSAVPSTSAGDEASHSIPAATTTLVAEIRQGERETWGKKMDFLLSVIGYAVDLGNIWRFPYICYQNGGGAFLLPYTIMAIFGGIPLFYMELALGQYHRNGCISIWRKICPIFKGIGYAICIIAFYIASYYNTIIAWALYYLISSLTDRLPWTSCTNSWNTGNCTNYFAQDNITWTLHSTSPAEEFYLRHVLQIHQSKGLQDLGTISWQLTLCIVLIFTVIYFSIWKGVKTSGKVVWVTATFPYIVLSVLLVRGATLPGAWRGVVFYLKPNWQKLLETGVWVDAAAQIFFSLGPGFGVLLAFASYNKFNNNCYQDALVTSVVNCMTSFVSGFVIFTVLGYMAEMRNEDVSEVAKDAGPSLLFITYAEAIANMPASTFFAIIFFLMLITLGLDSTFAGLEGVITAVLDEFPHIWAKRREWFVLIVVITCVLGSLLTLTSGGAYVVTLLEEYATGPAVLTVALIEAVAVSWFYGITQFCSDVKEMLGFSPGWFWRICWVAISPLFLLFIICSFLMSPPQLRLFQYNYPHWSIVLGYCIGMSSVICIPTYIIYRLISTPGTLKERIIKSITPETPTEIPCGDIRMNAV
- assay_text: Displacement of 3H-paroxetine at the serotonin reuptake site
- applied_conditions: rat brain without cerebellum, read-out: IC50, serotonin reuptake sites
Just a reminder that ties go to No: only IC50 strictly below 0.9 µM counts as Yes.

Known results for compounds:
>>> assigned_class("Cc1csc2c1-n1cccc1/C2=N/OCCNCc1ccccc1")
"Yes"
>>> assigned_class("CN(C)CCON=C1c2ccccc2-n2cccc21")
"No"
>>> assigned_class("Cc1csc2c1-n1cccc1/C2=N/OCC(C)N(C)C (centres unmarked)")
"Yes"
>>> assigned_class("CN1CCCC1CON=C1c2sccc2-n2cccc21 (racemic)")
"Yes"
>>> assigned_class("Cc1ccc2c(c1)C(=NOCC(C)N(C)C)c1cccn1-2 (centres unmarked)")
"No"

Query :: In the record for Cc1csc2c1-n1cccc1C2=NOC(CCN(C)C)c1ccccc1 (centres unmarked) , is IC50 less than 0.9 µM?
Result :: Yes

Query :: In the record for Cc1csc2c1-n1cccc1/C2=N/OCC(C)CN(C)C (centres unmarked) , is IC50 less than 0.9 µM?
Result :: No

Query :: In the record for "Cc1csc2c1-n1cccc1/C2=N/OCCCN(C)C" , is IC50 less than 0.9 µM?
Result :: No

Query :: In the record for CC(CON=C1c2ccccc2-n2cccc21)N(C)C (centres unmarked) , is IC50 less than 0.9 µM?
Result :: Yes

Query :: In the record for "CN(C)CCON=C1c2cc(Cl)ccc2-n2cccc21" , is IC50 less than 0.9 µM?
Result :: No

Query :: In the record for "Cc1csc2c1-n1cccc1/C2=N/OCCN" , is IC50 less than 0.9 µM?
Result :: Yes

Query :: In the record for "Cc1csc2c1-n1cccc1C2=NOCCN1CCCC1" , is IC50 less than 0.9 µM?
Result :: Yes

###

- tgt: 5-HT2C receptors (Rattus norvegicus, UniProt P08909)
- Sequence (P08909 33-460): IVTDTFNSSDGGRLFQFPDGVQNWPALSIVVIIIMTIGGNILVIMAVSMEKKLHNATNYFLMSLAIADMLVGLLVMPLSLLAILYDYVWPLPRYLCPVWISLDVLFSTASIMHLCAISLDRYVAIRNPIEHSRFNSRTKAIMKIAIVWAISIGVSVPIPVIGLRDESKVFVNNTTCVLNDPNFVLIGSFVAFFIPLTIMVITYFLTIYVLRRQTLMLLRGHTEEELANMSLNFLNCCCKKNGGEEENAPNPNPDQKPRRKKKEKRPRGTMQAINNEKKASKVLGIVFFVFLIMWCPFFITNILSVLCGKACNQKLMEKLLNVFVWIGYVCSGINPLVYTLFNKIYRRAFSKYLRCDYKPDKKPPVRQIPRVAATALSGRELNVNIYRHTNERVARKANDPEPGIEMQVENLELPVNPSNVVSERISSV
Provide the reported IC50 of each item.
Numbers only, in nM.

Solved entries (count: 6):
>>> reported("Cc1csc2c1-n1cccc1/C2=N/OCC(C)CN(C)C (stereo not shown) [Example 23]")
2000
>>> reported("Cc1csc2c1-n1cccc1/C2=N/OCC(C)N(C)C (stereo not shown) [Example 22]")
1600
>>> reported("CC(CON=C1c2ccccc2-n2cccc21)N(C)C (stereo not shown) [Example 55]")
4100
>>> reported("Cc1csc2c1-n1cccc1C2=NOCCN1CCCC1 [Example 17]")
710
>>> reported("Cc1csc2c1-n1cccc1/C2=N/OCCNCc1ccccc1 [Example 41]")
413
>>> reported("Cc1csc2c1-n1cccc1C2=NOCCN1CCCCC1 [Example 18]")
1200

For every listed record, write down its IC50.
1. Cc1csc2c1-n1cccc1/C2=N/OCCCN(C)C [Example 14]
2. CCN(CC)CCON=C1c2scc(C)c2-n2cccc21 [Example 15]
3. CN1CCCC1CON=C1c2sccc2-n2cccc21 (racemic) [Example 13]
4. Cc1ccc2c(c1)C(=NOCC(C)N(C)C)c1cccn1-2 (stereo not shown) [Example 52]

Result ::
[18000, 840, 1000, 2300]

###

- tgt: 5-HT1B receptors (Rattus norvegicus, UniProt P28564)
- Sequence (P28564 whole entry): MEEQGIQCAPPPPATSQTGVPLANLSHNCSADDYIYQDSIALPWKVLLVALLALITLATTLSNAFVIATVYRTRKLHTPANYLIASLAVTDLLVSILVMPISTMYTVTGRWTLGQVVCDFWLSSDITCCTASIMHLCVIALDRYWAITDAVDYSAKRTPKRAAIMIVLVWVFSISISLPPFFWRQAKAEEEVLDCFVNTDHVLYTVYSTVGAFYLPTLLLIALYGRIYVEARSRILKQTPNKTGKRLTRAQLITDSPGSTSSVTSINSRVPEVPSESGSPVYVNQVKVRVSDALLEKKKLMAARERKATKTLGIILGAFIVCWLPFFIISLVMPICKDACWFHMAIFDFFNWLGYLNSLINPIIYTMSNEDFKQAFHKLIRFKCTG
Just a reminder that ties go to false (0): only IC50 strictly below 4 µM counts as true (1).

Known results for molecules:
>>> assigned_class("CN(C)CCON=C1c2ccccc2-n2cccc21")
"true (1)"
>>> assigned_class("CCN(CC)CCON=C1c2scc(C)c2-n2cccc21")
"false (0)"
>>> assigned_class("Cc1ccc2c(c1)C(=NOCCC1CCCN1C)c1cccn1-2 (stereo not drawn)")
"false (0)"
>>> assigned_class("CN1CCCC1CON=C1c2sccc2-n2cccc21 (racemic)")
"false (0)"
>>> assigned_class("CC(CON=C1c2ccccc2-n2cccc21)N(C)C (stereo not drawn)")
"false (0)"
>>> assigned_class("Cc1csc2c1-n1cccc1/C2=N/OCCCN(C)C")
"false (0)"
>>> assigned_class("CN(C)CCON=C1c2cc(Cl)ccc2-n2cccc21")
"true (1)"
>>> assigned_class("Cc1csc2c1-n1cccc1/C2=N/OCC(C)CN(C)C (stereo not drawn)")
"false (0)"
>>> assigned_class("Cc1ccc2c(c1)C(=NOCC(C)N(C)C)c1cccn1-2 (stereo not drawn)")
"true (1)"
>>> assigned_class("Cc1csc2c1-n1cccc1C2=NOCCN1CCCC1")
"true (1)"

Query :: In the record for "Cc1csc2c1-n1cccc1/C2=N/OCCN" , is IC50 less than 4 µM?
Result :: true (1)

Query :: In the record for "Cc1csc2c1-n1cccc1/C2=N/OCCNCc1ccccc1" , is IC50 less than 4 µM?
Result :: false (0)

###

Read-out record for 5-HT3 receptors (Rattus norvegicus): pIC50
Give bare numbers, as −log10 of the molar value.

>>> reported("Cc1csc2c1-n1cccc1/C2=N/OCCN(C)C")
9.96
>>> reported("Cc1csc2c1-n1cccc1/C2=N/OCC(C)N(C)C (stereo not shown)")
9.00
>>> reported("Cc1csc2c1-n1cccc1/C2=N/OCC(C)CN(C)C (stereo not shown)")
8.27

For every listed record, write down its pIC50.
1. Cc1csc2c1-n1cccc1C2=NOCCN1CCCC1
2. CN(C)CCON=C1c2cc(Cl)ccc2-n2cccc21

Result ::
[8.70, 7.07]

For every listed record, write down its pIC50.
1. Cc1ccc2c(c1)C(=NOCC(C)N(C)C)c1cccn1-2 (stereo not shown)
2. Cc1ccc2c(c1)C(=NOCCC1CCCN1C)c1cccn1-2 (stereo not shown)

Result ::
1. 7.36
2. 7.43
